From: ChEMBL document CHEMBL1201862

- System: EKVX
- Experimental Protocol: NCI tumour cell line growth inhibition, 48 h
The source made the active and inactive calls. Rule as the data show it: active = GI50 up to about 1.1 µM and inactive = higher.
Below: a set of entries, each annotated with reported GI50.

>  <Molecule>
CNC(=S)N/N=C(\C)c1ccc(OC)cc1O

>  <GI50>
82.6 µM (inactive)

$$$$
>  <Molecule>
CCOC(=O)c1ccc(C(=O)/C(C(C)=O)=C2\CCCN2C)n1C

>  <GI50>
18.2 µM (inactive)

$$$$
>  <Molecule>
COC(=O)/C=C1\C(=O)N(C(C)=O)c2ccc(Br)cc21

>  <GI50>
15.2 µM (inactive)

$$$$
>  <Molecule>
CCCC(=O)C1=C(O)C(Cc2c(O)c(C)c(O)c(C(=O)CCC)c2O)=C(O)C(C)(C)C1=O

>  <GI50>
> 50 µM (inactive)

$$$$
>  <Molecule>
CC(=O)Oc1ccc2c(-c3ccccc3)c(Oc3ccc(Cl)cc3)c(=O)oc2c1

>  <GI50>
15.6 µM (inactive)

$$$$
>  <Molecule>
COc1cccc(Cc2c3cc(OC)ccc3cc[n+]2C)c1

>  <GI50>
> 100 µM (inactive)

$$$$
>  <Molecule>
COC(=O)c1ccc(CS(=O)(=O)c2ccccc2)cc1

>  <GI50>
> 100 µM (inactive)

$$$$
>  <Molecule>
CC1=C(c2cc(C(=O)Nc3nccs3)nc(NC#N)n2)Sc2ccccc2N1

>  <GI50>
> 100 µM (inactive)

$$$$
>  <Molecule>
CC(=O)C(C)C(=O)N1C(=O)N(C)C2(C)N(C)C(=O)NC12C (stereo unspecified)

>  <GI50>
> 100 µM (inactive)

$$$$
>  <Molecule>
Cc1ccc(-c2nc3n(c2/C=N\N=C(N)N)CCS3)cc1

>  <GI50>
16 µM (inactive)

$$$$

Would you kindly share the measured GI50 for CC(=O)c1cc(CC2Cc3cc4c(cc3C2=O)CCC4)cc2c1CCC2 (stereo unspecified) ?
37.8 µM (inactive)
